testDetails: Lapatinib pharmacokinetics and uptake in rat brain tissue (BT)
Assay type: in vivo, rats
appliedConditions: male, Wistar, rat, brain, oral, lapatinib 100 mg/kg + elacridar, 8 h; read-out: Clapatinib in BT, S
quantityMeasured: concentration at 8 h (ng/mL)
Write the number in ng/mL without appending the unit.

*Q* Assign concentration at 8 h to the following record: CS(=O)(=O)CCNCc1ccc(-c2ccc3ncnc(Nc4ccc(OCc5cccc(F)c5)c(Cl)c4)c3c2)o1
*A* 102

###

testDetails: Lapatinib pharmacokinetics and uptake in rat brain tissue (BT)
Assay type: in vivo, rats
appliedConditions: male, Wistar, rat, brain tissue homogenate, po, 100 mg/kg, lapatinib p.o. 100 mg/kg alone, 0.5 h; read-out: BT corr (BT homogenate corrected), S
Protocol: This study was conducted on rats, which are a promising model to predict P-gp-based drug-drug interactions at the human BBB [15]. The animals were allowed to acclimate for one week before the beginning of the experiments. Adult male Wistar-strain rats (weight 470–525 g) were used in the study. […]
quantityMeasured: concentration at 0.5 h (ng/mL)
Unit ng/mL implied. Number only.

*Q* Output measured concentration at 0.5 h for this item: CS(=O)(=O)CCNCc1ccc(-c2ccc3ncnc(Nc4ccc(OCc5cccc(F)c5)c(Cl)c4)c3c2)o1 [lapatinib]
*A* 31.5

###

testDetails: Lapatinib pharmacokinetics in rat blood plasma (BP), HPLC-MS/MS, noncompartmental analysis
Assay type: in vivo, rats
appliedConditions: male, Wistar, rat, plasma, oral, lapatinib 100 mg/kg + elacridar, 4 h; read-out: Clapatinib in BP, S
quantityMeasured: concentration at 4 h (ng/mL)
Numeric only. Scale: ng/mL

*Q* Report measured concentration at 4 h; entry is CS(=O)(=O)CCNCc1ccc(-c2ccc3ncnc(Nc4ccc(OCc5cccc(F)c5)c(Cl)c4)c3c2)o1
*A* 1310

###

testDetails: Lapatinib pharmacokinetics in rat blood plasma (BP), HPLC-MS/MS, noncompartmental analysis
Type: in vivo, rats
appliedConditions: male, Wistar, rat, plasma, po, 100 mg/kg, lapatinib p.o. 100 mg/kg alone, 0.25 h; read-out: Clapatinib in BP, S (medium value)
quantityMeasured: concentration at 0.25 h (ng/mL)
Express the result in ng/mL but write the number alone.

*Q* Answer with reported concentration at 0.25 h of CS(=O)(=O)CCNCc1ccc(-c2ccc3ncnc(Nc4ccc(OCc5cccc(F)c5)c(Cl)c4)c3c2)o1
*A* 650

###

testDetails: Lapatinib pharmacokinetics in rat blood plasma (BP), HPLC-MS/MS, noncompartmental analysis
Format: in vivo, rats
appliedConditions: male, Wistar, rat, plasma, po, 100 mg/kg, blood plasma; lapatinib 100 mg/kg oral + 5 mg/kg elacridar (IE+L)
quantityMeasured: AUC(0-t) (ng·h/mL)
Give the value in ng·h/mL but do not write ng·h/mL after it.

*Q* Identify measured AUC(0-t) associated with CS(=O)(=O)CCNCc1ccc(-c2ccc3ncnc(Nc4ccc(OCc5cccc(F)c5)c(Cl)c4)c3c2)o1
*A* 43600

###

testDetails: Lapatinib pharmacokinetics and uptake in rat brain tissue (BT)
Format: in vivo, rats
appliedConditions: male, Wistar, rat, brain tissue homogenate, po, 100 mg/kg, lapatinib p.o. 100 mg/kg alone, 4 h; read-out: Clapatinib in BT, S (medium value)
quantityMeasured: concentration at 4 h (ng/mL)
All answers are understood in ng/mL, so give the number only.

*Q* Identify concentration at 4 h associated with the molecule CS(=O)(=O)CCNCc1ccc(-c2ccc3ncnc(Nc4ccc(OCc5cccc(F)c5)c(Cl)c4)c3c2)o1
*A* 147

###

testDetails: Lapatinib pharmacokinetics in rat blood plasma (BP), HPLC-MS/MS, noncompartmental analysis
Format: in vivo, rats
appliedConditions: male, Wistar, rat, plasma, po, 100 mg/kg, blood plasma; lapatinib 100 mg/kg oral alone (IIL)
quantityMeasured: k el (s⁻¹)
Give the quantity in s⁻¹, number only.

*Q* Determine its reported k el: CS(=O)(=O)CCNCc1ccc(-c2ccc3ncnc(Nc4ccc(OCc5cccc(F)c5)c(Cl)c4)c3c2)o1
*A* 3.61e-05

###

testDetails: Lapatinib pharmacokinetics and uptake in rat brain tissue (BT)
Assay type: in vivo, rats
appliedConditions: male, Wistar, rat, brain, oral, lapatinib 100 mg/kg + elacridar, 2 h; read-out: Clapatinib in BT, S
quantityMeasured: concentration at 2 h
Numeric answer plus unit only.

*Q* Check the records and state concentration at 2 h for CS(=O)(=O)CCNCc1ccc(-c2ccc3ncnc(Nc4ccc(OCc5cccc(F)c5)c(Cl)c4)c3c2)o1
*A* 102 ng/mL

###

testDetails: Lapatinib pharmacokinetics and uptake in rat brain tissue (BT)
Format: in vivo, rats
appliedConditions: male, Wistar, rat, brain tissue homogenate, po, 100 mg/kg, lapatinib p.o. 100 mg/kg alone, 2 h; read-out: Clapatinib in BT, S (medium value)
quantityMeasured: concentration at 2 h (ng/mL)
Supply the numeric figure in ng/mL, leaving out any unit text.

*Q* Name the recorded concentration at 2 h of the compound listed here: CS(=O)(=O)CCNCc1ccc(-c2ccc3ncnc(Nc4ccc(OCc5cccc(F)c5)c(Cl)c4)c3c2)o1 [lapatinib]
*A* 63.7

###

testDetails: Lapatinib pharmacokinetics and uptake in rat cerebrospinal fluid (CSF)
Type: in vivo, rats
appliedConditions: male, Wistar, rat, cerebrospinal fluid, oral, lapatinib 100 mg/kg + elacridar, 12 h; read-out: Clapatinib in CSF, single rat
Experimental: This study was conducted on rats, which are a promising model to predict P-gp-based drug-drug interactions at the human BBB [15]. The animals were allowed to acclimate for one week before the beginning of the experiments. Adult male Wistar-strain rats (weight 470–525 g) were used in the study. […]
quantityMeasured: concentration at 12 h
Answer format: number, then unit.

*Q* Tell us which concentration at 12 h value is on record for CS(=O)(=O)CCNCc1ccc(-c2ccc3ncnc(Nc4ccc(OCc5cccc(F)c5)c(Cl)c4)c3c2)o1
*A* 2.62 ng/mL

###

testDetails: Lapatinib pharmacokinetics in rat blood plasma (BP), HPLC-MS/MS, noncompartmental analysis
Assay type: in vivo, rats
appliedConditions: male, Wistar, rat, plasma, oral, lapatinib 100 mg/kg + elacridar, 12 h; read-out: Clapatinib in BP, single rat
quantityMeasured: concentration at 12 h (µg/mL)
Quick note: give the figure in µg/mL, leave out the unit.

*Q* Output measured concentration at 12 h for this item: CS(=O)(=O)CCNCc1ccc(-c2ccc3ncnc(Nc4ccc(OCc5cccc(F)c5)c(Cl)c4)c3c2)o1 [lapatinib]
*A* 2.29

###

testDetails: Lapatinib pharmacokinetics and uptake in rat brain tissue (BT);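 as to BT corr (BT homogenate), single rat: brain concentration corrected for residual brain blood by the Fridén method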
Format: in vivo, rats
appliedConditions: male, Wistar, rat, brain, oral, lapatinib 100 mg/kg + elacridar, 0.5 h; read-out: BT corr (BT homogenate), single rat
Method: This study was conducted on rats, which are a promising model to predict P-gp-based drug-drug interactions at the human BBB [15]. The animals were allowed to acclimate for one week before the beginning of the experiments. Adult male Wistar-strain rats (weight 470–525 g) were used in the study. […]
quantityMeasured: concentration at 0.5 h (ng/mL)
Reply with just the number (in ng/mL).

*Q* Entry CS(=O)(=O)CCNCc1ccc(-c2ccc3ncnc(Nc4ccc(OCc5cccc(F)c5)c(Cl)c4)c3c2)o1 needs its concentration at 0.5 h filled in; supply it.
*A* 45.2

###

testDetails: Lapatinib pharmacokinetics and uptake in rat brain tissue (BT)
Type: in vivo, rats
appliedConditions: male, Wistar, rat, brain tissue homogenate, po, 100 mg/kg, lapatinib p.o. 100 mg/kg alone, 2 h; read-out: Clapatinib in BT, single rat
quantityMeasured: concentration at 2 h (ng/mL)
Give the number; ng/mL is assumed, so skip it.

*Q* Consider the compound CS(=O)(=O)CCNCc1ccc(-c2ccc3ncnc(Nc4ccc(OCc5cccc(F)c5)c(Cl)c4)c3c2)o1 . State its measured concentration at 2 h.
*A* 49.8

###

testDetails: Lapatinib pharmacokinetics and uptake in rat brain tissue (BT);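 as to BT corr (BT homogenate corrected), single rat: brain concentration corrected for residual brain blood by the Fridén method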
Assay type: in vivo, rats
appliedConditions: male, Wistar, rat, brain tissue homogenate, corrected for residual blood, po, 100 mg/kg, lapatinib p.o. 100 mg/kg alone, 1 h; read-out: BT corr (BT homogenate corrected), single rat
quantityMeasured: concentration at 1 h (ng/mL)
Output spec: scalar in ng/mL, unitless text.

*Q* Return concentration at 1 h for the following compound: CS(=O)(=O)CCNCc1ccc(-c2ccc3ncnc(Nc4ccc(OCc5cccc(F)c5)c(Cl)c4)c3c2)o1
*A* 48.1

###

testDetails: Lapatinib pharmacokinetics and uptake in rat cerebrospinal fluid (CSF)
Type: in vivo, rats
appliedConditions: male, Wistar, rat, cerebrospinal fluid (CSF), po, 100 mg/kg, lapatinib p.o. 100 mg/kg alone, 3 h; read-out: Clapatinib in CSF, single rat
quantityMeasured: concentration at 3 h (ng/mL)
Write the value in ng/mL as a bare number.

*Q* Tell me its concentration at 3 h given CS(=O)(=O)CCNCc1ccc(-c2ccc3ncnc(Nc4ccc(OCc5cccc(F)c5)c(Cl)c4)c3c2)o1 as the entry.
*A* 9.49

###

testDetails: Lapatinib pharmacokinetics and uptake in rat brain tissue (BT)
Type: in vivo, rats
appliedConditions: male, Wistar, rat, brain tissue homogenate, corrected for residual blood, po, 100 mg/kg, lapatinib p.o. 100 mg/kg alone, 3 h; read-out: BT corr (BT homogenate corrected), S
quantityMeasured: concentration at 3 h (ng/mL)
Report the value in ng/mL with no unit label.

*Q* Provide measured concentration at 3 h value, entry: CS(=O)(=O)CCNCc1ccc(-c2ccc3ncnc(Nc4ccc(OCc5cccc(F)c5)c(Cl)c4)c3c2)o1 [lapatinib]
*A* 111
